Target: T1, C1s in normal human serum (NHS, CompTech NHS) (human, UniProt P09871 16-688)
T1 sequence (looked up): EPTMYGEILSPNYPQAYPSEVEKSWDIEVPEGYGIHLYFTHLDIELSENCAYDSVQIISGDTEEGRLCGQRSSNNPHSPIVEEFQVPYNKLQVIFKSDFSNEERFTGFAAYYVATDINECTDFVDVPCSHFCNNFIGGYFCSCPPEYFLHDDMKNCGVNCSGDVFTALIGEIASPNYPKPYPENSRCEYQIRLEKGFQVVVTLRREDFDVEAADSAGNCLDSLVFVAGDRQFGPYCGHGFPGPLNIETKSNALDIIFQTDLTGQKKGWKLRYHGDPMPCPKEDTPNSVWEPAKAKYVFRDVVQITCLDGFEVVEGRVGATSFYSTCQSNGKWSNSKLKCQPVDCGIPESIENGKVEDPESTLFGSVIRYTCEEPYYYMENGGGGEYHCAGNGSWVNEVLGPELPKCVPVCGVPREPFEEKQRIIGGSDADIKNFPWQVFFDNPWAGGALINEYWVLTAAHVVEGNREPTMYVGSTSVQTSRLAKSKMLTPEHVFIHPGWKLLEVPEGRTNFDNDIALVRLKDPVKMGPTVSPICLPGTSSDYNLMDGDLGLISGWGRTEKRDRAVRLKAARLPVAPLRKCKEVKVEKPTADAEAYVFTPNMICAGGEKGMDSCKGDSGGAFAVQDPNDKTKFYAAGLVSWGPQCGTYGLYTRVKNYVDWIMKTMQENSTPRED
Assay: cell-based or functional assay
Documented IC50, inhibition of IgM-induced C4 deposition from NHS across a set of binders
RECORDED_METRIC: IC50, inhibition of IgM-induced C4 deposition from NHS

- BINDER: "Anti-C1s antibody hz2-8 (H1L2 G80A) (antibody, V domains shown, Humanized variant with G80A in HC CDR2 (already in the entry), human IgG1 / kappa) VH: QVQLVQSGAEVKKPGASVKVSCKASGFNIKEYYMHWVRQAPEQGLEWMGWIDPENADTIYAQKFQGRVTITADTSTNTAYMELSSLRSEDTAVYYCARSRLFFAYWGQGTLVTVSS VL: DIQMTQSPKSLSASVGDRVTITCRASQDVRTALDWYQQKPGQSPKLLIYSASYRYSGVPSRFSGSGSGTDFTLTISSLQPEDFATYYCQQQYTTPYTFGQGTKLEIKR"
  VALUE_MEASURED: "0.5 µg/mL"
- BINDER: "Anti-C1s antibody hz2-8 (H1L2 G80A/T82A) (antibody, V domains shown, Humanized variant with G80A and T82A in HC CDR2 (already in the entry), human IgG1 / kappa) VH: QVQLVQSGAEVKKPGASVKVSCKASGFNIKEYYMHWVRQAPEQGLEWMGWIDPENADAIYAQKFQGRVTITADTSTNTAYMELSSLRSEDTAVYYCARSRLFFAYWGQGTLVTVSS VL: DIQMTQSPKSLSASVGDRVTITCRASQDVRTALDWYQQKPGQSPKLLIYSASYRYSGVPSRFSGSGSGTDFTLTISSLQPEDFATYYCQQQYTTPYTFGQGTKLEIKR"
  VALUE_MEASURED: "0.4 µg/mL"
- BINDER: "Anti-C1s antibody hz2-7(H1L2) (antibody, V domains shown, Humanized, human IgG1 / kappa; also called hz2-7(1L2)) VH: EVQLLESGGGLVQPGGSLRLSCAASGFTFSNYFMNWVRQAPGKGLEWVSEIRLKFTNYATHYADSVKGRFTISRDDSKSTLYLQMNSLRAEDTAVYYCTRDYGSRNGYFDYWGQGTLVTVSS VL: DIVMTQTPLSLPVTPGEPASISCRSSKSLLHSNGNTFLYWFLQKPGQSPQLLIYRMSNLASGVPDRFSGSGSGTDFTLKISRVEAEDVGVYYCMQHLEYPYTFGGGTKLEIKR"
  VALUE_MEASURED: "1.1 µg/mL"
